biological target: biotinylated GST (Schistosoma japonicum); test: Control assay (AlphaScreen Shortcut); format: biochemical; conditions: Control assay IC50, Batch 3 (NP repurified)
endpoint.label: IC50

The compound O=C1NCCc2c1[nH]c1c(-c3ccoc3)cccc21 [Cmpd 3] showed IC50 equal to > 100 µM

---

target: KRAS “on” (Homo sapiens)
Sequence (P01116 1-169): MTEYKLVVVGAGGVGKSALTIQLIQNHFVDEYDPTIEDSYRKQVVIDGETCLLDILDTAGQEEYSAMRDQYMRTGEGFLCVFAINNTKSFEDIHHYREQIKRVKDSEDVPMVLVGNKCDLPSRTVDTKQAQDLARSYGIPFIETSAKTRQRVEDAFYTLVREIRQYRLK
endpoint.label: pKd
Quick note: pKd values are minus log10 of concentrations in mol/L.

Result for `c1ccc2c(Cc3nc4ccncc4[nH]3)c[nH]c2c1` , tested on KRAS “on” (Homo sapiens), pKd: 2.92

---

Molecular target: KRAS^G12D(GTP)::CRAF (Homo sapiens, UniProt P01116, G12D)
Construct: KRAS^G12D 1–169, N-terminal 6His-tag, C-terminal avi-tag (Xtal BioStructures, Inc.); 6His (N); purchased Xtal BioStructures, Inc. (KRAS); Viva Biotech Ltd. (CRAF)
Sequence (P01116 1-169 isoform P01116-2 G12D): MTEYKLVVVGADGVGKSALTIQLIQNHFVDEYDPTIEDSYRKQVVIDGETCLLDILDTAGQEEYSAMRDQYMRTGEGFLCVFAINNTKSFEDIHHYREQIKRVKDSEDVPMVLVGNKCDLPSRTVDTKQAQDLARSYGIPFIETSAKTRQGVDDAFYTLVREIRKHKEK
Experiment: KRAS^G12D(GTP)::CRAF AlphaScreen
Format: biochemical
Details: Luminescence; GST-CRAF^(1–303) and KRAS^G12D(1–169)-biotin; read-out: IC50, KRAS^G12D(GTP)::CRAF AlphaScreen
Description: The proteins have been used at these given final assay concentrations: Test compounds dissolved in DMSO were dispensed onto assay plates (Proxiplate 384 PLUS, white, PerkinElmer; 6008289) using an Access Labcyte Workstation with the Labcyte Echo 555. […] After an additional 60 min incubation time the signal was measured on a PerkinElmer Envision HTS Multilabel Reader using the AlphaScreen specs from PerkinElmer. […]
endpoint.label: IC50 (nM)
Reply numerically in nM, unit not repeated.

The compound [Cl][Pd][Cl] [PdCl2, Palladium(II) chloride] showed IC50 equal to 700

---

biological target: SOS1 (Homo sapiens); experiment: SOS1 AlphaScreen, Target #1; type: biochemical
pIC50: −log10 of the molar value.
compounds and their reported pIC50

[Cl][Fe][Cl] [FeCl2, Iron(II) chloride]: < 5.00
[Cl][Au]([Cl])[Cl] [AuCl3, Gold(III) chloride]: > 6.00
[Cl][Cu][Cl] [CuCl2, Copper(II) chloride]: 5.00 to 6.00
O=[N+]([O-])[O-].O=[N+]([O-])[O-].O=[N+]([O-])[O-].[Al+3] [Al(NO3)3, Aluminum nitrate]: < 5.00

The compound [Cl][Mn][Cl] [MnCl2, Manganese(II) chloride] showed pIC50 equal to < 5.00

---

compounds and their reported pIC50
biological target: biotinylated GST (Schistosoma japonicum); assay: Control assay (AlphaScreen Shortcut); assay type: biochemical; details: Control assay IC50, Batch 1
pIC50: −log10 of the molar value.

The compound O=C1NCCc2c1[nH]c1c(-c3ccoc3)cccc21 [Cmpd 3] showed pIC50 equal to 4.47

The compound c1ccc2c(Cc3nc4ccncc4[nH]3)c[nH]c2c1 [FBS Hit 1] showed pIC50 equal to < 4.00

The compound Clc1ccc2[nH]c3c(c2c1)CNCC3 [FBS Hit 2] showed pIC50 equal to < 4.00

The compound O=C1NCCc2c1[nH]c1c(-c3ccncc3)cccc21 [Cmpd 4] showed pIC50 equal to < 4.00

---

molecules and their reported pIC50
molecular target: KRAS^G12D(GTP)::CRAF (Homo sapiens, UniProt P01116, G12D); construct: KRAS^G12D 1–169, N-terminal 6His-tag, C-terminal avi-tag (Xtal BioStructures, Inc.); 6His (N); purchased Xtal BioStructures, Inc. (KRAS); Viva Biotech Ltd. (CRAF); assay: KRAS^G12D(GTP)::CRAF AlphaScreen; format: biochemical; settings: Batch 2 (resynthesized); read-out: KRAS^G12D(GTP)::CRAF AlphaScreen IC50
Quick note: pIC50 values are minus log10 of concentrations in mol/L.

O=C1NCCc2c1[nH]c1c(-c3ccoc3)cccc21: 4.29

Result for `O=C1NCCc2c1[nH]c1c(-c3ccncc3)cccc21` , tested on KRAS^G12D(GTP)::CRAF (Homo sapiens, UniProt P01116, G12D), pIC50: 4.11

---

target: SOS1 (Homo sapiens, UniProt Q07889); test: SOS1 AlphaScreen, Target #1; type: biochemical
endpoint.label: IC50

Some molecules with known IC50 results, for comparison:
[Cl-].[Cl-].[Co+2] [CoCl2, Cobalt(II) chloride]: > 10 µM
[Cl-].[Cl-].[Zn+2] [ZnCl2, Zinc(II) chloride]: > 10 µM

Next:
The molecule [Cl][Fe]([Cl])[Cl] [FeCl3, Iron(III) chloride] showed IC50 equal to > 10 µM

The reported numbers originate from paper PMC11285368.
